Measured furin cleavage Z-score values are reported for all entries that follow.
Target: furin, P09958;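 note: purified furin at 1:10 enzyme:substrate in 50 mM HEPES pH 7.5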
Sequence (P09958 whole entry): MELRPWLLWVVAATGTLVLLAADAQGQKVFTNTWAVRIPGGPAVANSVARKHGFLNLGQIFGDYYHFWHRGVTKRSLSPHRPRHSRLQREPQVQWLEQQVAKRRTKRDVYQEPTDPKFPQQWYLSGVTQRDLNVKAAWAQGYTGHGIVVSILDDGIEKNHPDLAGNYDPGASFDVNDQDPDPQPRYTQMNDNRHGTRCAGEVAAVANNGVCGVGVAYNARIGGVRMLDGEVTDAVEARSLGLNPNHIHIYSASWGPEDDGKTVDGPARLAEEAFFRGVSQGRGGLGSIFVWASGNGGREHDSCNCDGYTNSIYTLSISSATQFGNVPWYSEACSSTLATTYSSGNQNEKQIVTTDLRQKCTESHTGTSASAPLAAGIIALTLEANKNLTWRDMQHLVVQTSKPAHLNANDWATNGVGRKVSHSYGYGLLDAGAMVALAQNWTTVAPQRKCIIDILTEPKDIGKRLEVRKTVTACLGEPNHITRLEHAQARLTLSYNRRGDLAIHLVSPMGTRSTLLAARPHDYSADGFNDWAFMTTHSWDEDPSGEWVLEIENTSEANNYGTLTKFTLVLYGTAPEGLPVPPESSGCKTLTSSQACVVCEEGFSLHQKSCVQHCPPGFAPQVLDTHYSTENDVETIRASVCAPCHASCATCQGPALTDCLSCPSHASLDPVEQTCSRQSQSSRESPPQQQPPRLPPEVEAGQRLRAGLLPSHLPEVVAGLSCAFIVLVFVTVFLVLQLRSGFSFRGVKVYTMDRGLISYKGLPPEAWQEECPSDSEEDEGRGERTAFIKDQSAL
Assay: furin cleavage Z-score vs untreated control; higher = more cleavage, active = 3.5 or more, inactive = 1 or less, 8 variable residues between constant flanks
Conditions: 7.5 min
Some of the results follow. The hit rate among all sequences tested is not known here.

{"POLYMER_SEQUENCE": "CARKKRPGGGAGNASASA [FS-2344]", "furin cleavage Z-score": 0.0138}
{"POLYMER_SEQUENCE": "CAQARRFRRSAGNASASA [FS-844]", "furin cleavage Z-score": 14.3}
{"POLYMER_SEQUENCE": "CAAPRRPRRPAGNASASA [FS-116]", "furin cleavage Z-score": 0.169}
{"POLYMER_SEQUENCE": "CANTNGSWHLAGNASASA [HC368]", "furin cleavage Z-score": -0.455}
{"POLYMER_SEQUENCE": "CAEDEVPCHRAGNASASA [HC2451]", "furin cleavage Z-score": 1.14}
{"POLYMER_SEQUENCE": "CALNTGWLAGAGNASASA [HC377]", "furin cleavage Z-score": -0.173}
{"POLYMER_SEQUENCE": "CAVVCCSMSAAGNASASA [HC2083]", "furin cleavage Z-score": 0.0703}
